Origin of values: the supplement of paper PMC10065799

Biological target: FGFR3 (UniProt P22607)
Sequence (P22607 whole entry, looked up): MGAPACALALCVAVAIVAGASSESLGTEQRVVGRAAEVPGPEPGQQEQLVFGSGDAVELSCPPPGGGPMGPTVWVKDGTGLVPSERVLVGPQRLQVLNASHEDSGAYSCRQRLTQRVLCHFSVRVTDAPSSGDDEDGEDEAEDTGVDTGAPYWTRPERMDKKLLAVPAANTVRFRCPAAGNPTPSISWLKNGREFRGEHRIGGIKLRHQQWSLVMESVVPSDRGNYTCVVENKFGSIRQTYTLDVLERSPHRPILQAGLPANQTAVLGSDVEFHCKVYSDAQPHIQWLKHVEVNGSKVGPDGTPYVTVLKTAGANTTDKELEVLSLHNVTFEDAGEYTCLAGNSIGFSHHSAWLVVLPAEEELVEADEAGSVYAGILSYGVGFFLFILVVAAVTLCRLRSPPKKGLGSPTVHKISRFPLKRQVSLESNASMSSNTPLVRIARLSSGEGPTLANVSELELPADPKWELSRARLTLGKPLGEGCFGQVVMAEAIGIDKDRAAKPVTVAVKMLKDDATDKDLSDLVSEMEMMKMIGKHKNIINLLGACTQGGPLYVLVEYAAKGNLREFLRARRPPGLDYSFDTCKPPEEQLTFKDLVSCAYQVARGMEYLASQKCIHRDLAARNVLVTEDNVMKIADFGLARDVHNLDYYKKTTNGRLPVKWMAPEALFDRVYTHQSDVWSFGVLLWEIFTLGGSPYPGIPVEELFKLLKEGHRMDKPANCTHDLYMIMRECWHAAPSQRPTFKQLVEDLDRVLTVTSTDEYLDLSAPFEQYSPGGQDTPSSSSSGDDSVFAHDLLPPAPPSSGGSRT
Experiment: phosphorylation enrichment, bacterial display (enrichment ratio); higher = better substrate or ligand; peptides without Tyr show the background;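 also: 11-residue human phosphosite peptides and single-mutation variants displayed on the E. coli surface, counted by deep sequencing, each peptide's frequency after selection divided by its frequency in the unselected input library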;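 also: frequency after pTyr selection over input frequency; kinase dosed for 20-30% of maximal phosphorylation in three min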
Use 0.6 as the dividing line for phosphorylation enrichment, with the line itself on the class 1 side and lower values as class 0.

- macromolecule.sequence: "TLNHQYDYTFD [CSNK1A1_Y292]"
  label.class: "class 1"
- macromolecule.sequence: "QMVGMYASFYM [AVPR2_Y124_S127F]"
  label.class: "class 1"
- macromolecule.sequence: "DWLRRYLENGK [HLA-A_Y195_E190D]"
  label.class: "class 1"
- macromolecule.sequence: "CTTFHYNYMCN [TP53_Y234_I232F]"
  label.class: "class 1"
- macromolecule.sequence: "LNNIIYRVERA [CUX2_Y1470]"
  label.class: "class 1"

Does the sequence IIGNGYYFHVF [MYBPC3_Y1135_R1138H] have recorded phosphorylation enrichment that is 0.6 or more?
class 1

Answer whether phosphorylation enrichment of SGSFRYGSSFE [SELE_Y390_C394F] is greater than or equal to 0.6.
class 0

# bool: phosphorylation enrichment of WRPFGYPCRRR [BCS1L_Y181_R183C] >= 0.6
class 0

Hi, just wondering whether GPIEVYLCPEE [E2F3_Y349] shows phosphorylation enrichment of 0.6 or higher.
class 1

Is it the case that MEYLPYGSLRD [JAK2_Y934] has phosphorylation enrichment reaching or exceeding 0.6?
class 1

Could you please find out whether SESSYYKSLNL [NGEF_Y289_A286S] has phosphorylation enrichment that meets 0.6 or exceeds it?
class 1

Check the entry YGAHNYHPLPV [OAT_Y55] : does phosphorylation enrichment equal or exceed 0.6?
class 1

Check if phosphorylation enrichment >= 0.6 (inclusive). Item: DNKALYDICFR [TUBB3_Y208_E205K]
class 1

For this sequence, is measured phosphorylation enrichment 0.6 or higher? DASAVYLHDFQ [PLCG2_Y242]
class 0

Hi, just wondering whether NRLTDYFELLL [BBS10_Y536_P539L_YF] shows phosphorylation enrichment of 0.6 or higher.
class 1

Has NSIGNYYKPWF [DHCR24_Y299] a recorded phosphorylation enrichment greater than or equal to 0.6?
class 1

Could you verify whether the entry MSLRSYGSREG [APC_Y96] shows phosphorylation enrichment of no less than 0.6?
class 0
